Measurement Description: Cytotoxicity assay
Type: cell-based
Condition Description: human, HepG2 cells
Quantity Measured: viability at 24 h, 2 × MIC

So what's the measured viability at 24 h, 2 × MIC for this one? CN1CCN(CCCN2c3ccccc3Sc3ccc(Cl)cc32)CC1 [Prochlorperazine dimaleate]
~50%

----------
For each of the compounds below, state its biofilm growth inhibition.
Test system: S. aureus ATCC 43300 biofilm
Measurement Description: Biofilm growth inhibition assay
Format: cell-based, Staphylococcus aureus
Condition Description: at MIC, 24 hours
Structures can show the parent of a compound that is named as a salt.
Numbers only, in %.

Known results for compounds:
Compound	Study System	biofilm growth inhibition / %
CN(C)CCCN1c2ccccc2Sc2ccc(C(F)(F)F)cc21 [Triflupromazine hydrochloride]	S. aureus ATCC 43300 biofilm	19
c1ccc2c(c1)Sc1ccccc1N2CC1CN2CCC1CC2 (stereo not drawn)	S. aureus ATCC 43300 biofilm	95
CN(C)CCCN1c2ccccc2Sc2ccc(Cl)cc21 [Chlorpromazine hydrochloride]	S. aureus ATCC 43300 biofilm	93
CCOC(=O)C1=C(COCCN)NC(C)=C(C(=O)OC)C1c1ccccc1Cl (stereo not drawn) [Amlodipine besylate]	S. aureus ATCC 43300 biofilm	40
CN1CCN(CCCN2c3ccccc3Sc3ccc(Cl)cc32)CC1 [Prochlorperazine dimaleate]	S. aureus ATCC 43300 biofilm	67

Let's switch to this compound now.
So what's the measured biofilm growth inhibition for this one? CN(C)C(=O)C(CCN1CCC(O)(c2ccc(Cl)cc2)CC1)(c1ccccc1)c1ccccc1 [Loperamide hydrochloride]
95
